# testName: viability of PTEN-null HCT116 cells – cell-based, HCT116 clonal line, CellTiter-Glo, pilot screen (AID 824);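 also: 0% = 20 µM Hyamine control and 100% = vehicle cell control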
# measurementContext: HCT116 PTEN-deleted viability, 60 h, at 10 µM, hits give low values
Records with an inconclusive call do not appear.
measurementName: viability (%)

>>> recordedresult("Cc1cc(C)n(-c2nc3ccccc3nc2Nc2ccc3c(c2)OCO3)n1")
81.7
>>> recordedresult("Cc1c(/C=N/n2cnnc2)c2ccccc2n1CCOc1ccc(Cl)cc1")
90
>>> recordedresult("C=CCSc1nnc2c(n1)OC=Nc1ccccc1-2")
101
>>> recordedresult("NC/C(=N\\O)c1ccc(Cl)cc1Cl")
94.1
